B1: FAM46D (parent)
chain: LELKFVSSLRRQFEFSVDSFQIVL

Variants of: B1
method description: protein stability index of a GFP-peptide fusion (GPS, HEK-293T) (PSI 1-6); higher = more stable;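 also: lentivirally expressed fusions sorted by FACS into six bins by GFP to DsRed ratio, PSI derived from sequencing read proportions per bin multiplied by bin number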
setup conditions: c terminus: a fixed tail appended
Class 1: protein stability index at least 3. Class -1: protein stability index below 3.

variant_designation=S7C qualitative_label=1
variant_designation=V23E qualitative_label=1
variant_designation=E14L qualitative_label=-1
variant_designation=D18R qualitative_label=1
variant_designation=S19M qualitative_label=1
variant_designation=V6T qualitative_label=1
variant_designation=R11L qualitative_label=-1
variant_designation=F5V qualitative_label=1
variant_designation=D18E qualitative_label=-1
variant_designation=K4D qualitative_label=1
variant_designation=L9V qualitative_label=1
variant_designation=D18F qualitative_label=-1
variant_designation=S16C qualitative_label=1
variant_designation=L1Q qualitative_label=-1
variant_designation=F5S qualitative_label=1
variant_designation=F15E qualitative_label=1
